experimental.details: Pharmacokinetics of apixaban in rats, alone and after multiple doses of almonertinib
Format: in vivo, Sprague-Dawley (SD) rats
run.parameters: male, Sprague-Dawley, rat, plasma, po, 0.5 mg/kg, rats, oral apixaban 0.5 mg/kg after almonertinib 15 mg/kg for nine days (group 7), mean ± SD, n = 6
measured.metric: AUC(0-inf) (ng·h/mL)
Write the answer as a number in ng·h/mL, unit excluded.

Give the measured AUC(0-inf) of COc1ccc(-n2nc(C(N)=O)c3c2C(=O)N(c2ccc(N4CCCCC4=O)cc2)CC3)cc1 [apixaban, Apixaban] .
2370

* * *

experimental.details: Pharmacokinetics of apixaban in rats, alone and after multiple doses of almonertinib
Format: in vivo, Sprague-Dawley (SD) rats
run.parameters: male, Sprague-Dawley, rat, plasma, po, 0.5 mg/kg, rats, oral apixaban 0.5 mg/kg after almonertinib 15 mg/kg for nine days (group 7), mean ± SD, n = 6
measured.metric: Tmax (min)
Write the answer as a number in min, unit excluded.

Give the measured Tmax of "COc1ccc(-n2nc(C(N)=O)c3c2C(=O)N(c2ccc(N4CCCCC4=O)cc2)CC3)cc1" .
37.8

* * *

experimental.details: Pharmacokinetics of rivaroxaban in rats, alone and after multiple doses of almonertinib
Type: in vivo, Sprague-Dawley (SD) rats
run.parameters: male, Sprague-Dawley, rat, plasma, po, 2 mg/kg, rats, oral rivaroxaban 2 mg/kg alone (group 1), mean ± SD, n = 6; read-out: CLz/F (converted)
Description: Analytes were measured using UPLC-MS/MS, which was equipped with an LC-30A ultra-performance liquid chromatography (Shimadzu, Kyoto, Japan) and Sciex Triple Quad 5,500 tandem triple quadrupole mass spectrometer (AB Sciex, Framingham, MA, United States). Chromatographic separation was performed using an XSelect HSS T3 column (2.1 mm × 100 mm, 2.5 µm, Waters, Milford, MA, United States) at 40°C by gradient elution. The mobile phase consisted of water (A) and acetonitrile (0.1% formic acid, B). […]
measured.metric: CL/F (mL/min/kg)
Write the answer as a number in mL/min/kg, unit excluded.

Give the measured CL/F of O=C(NC[C@H]1CN(c2ccc(N3CCOCC3=O)cc2)C(=O)O1)c1ccc(Cl)s1 [rivaroxaban, Rivaroxaban] .
43.7

* * *

experimental.details: Pharmacokinetics of almonertinib in rats, alone and after multiple doses of rivaroxaban or apixaban
Assay type: in vivo, Sprague-Dawley (SD) rats
run.parameters: male, Sprague-Dawley, rat, plasma, po, 15 mg/kg, rats, oral almonertinib 15 mg/kg alone (group 4, control solvent of apixaban), mean ± SD, n = 6; read-out: MRT0-∞
measured.metric: MRT inf (h)
Write the answer as a number in h, unit excluded.

Give the measured MRT inf of C=CC(=O)Nc1cc(Nc2nccc(-c3cn(C4CC4)c4ccccc34)n2)c(OC)cc1N(C)CCN(C)C [almonertinib, Almonertinib] .
8.35

* * *

experimental.details: Pharmacokinetics of apixaban in rats, alone and after multiple doses of almonertinib
Type: in vivo, Sprague-Dawley (SD) rats
run.parameters: male, Sprague-Dawley, rat, plasma, po, 0.25 mg/kg, rats, oral apixaban 0.25 mg/kg after almonertinib 15 mg/kg for nine days (group 8), mean ± SD, n = 6
measured.metric: Tmax (min)
Write the answer as a number in min, unit excluded.

Give the measured Tmax of COc1ccc(-n2nc(C(N)=O)c3c2C(=O)N(c2ccc(N4CCCCC4=O)cc2)CC3)cc1 [apixaban, Apixaban] .
47.4

Reference source: paper PMC10582335
